Test system: IL-4 production
experiment-summary: Test 1: inhibition of IL-4 production in human T-cell strain ATL-16T(-) stimulated with PMA (R&D Systems EIA)
Type: cell-based
assay-setup: 10^-5 M, ATL-16T(-) 1×10^6 cells/0.5 ml/well, 20 nM PMA, 48 hours, read-out: Inhibition rate of IL-4 production
Counter-ions that a name gives are not always drawn.
metric: inhibition at 10 µM (%)
Express your answer in %, writing the number without its unit.

Field inhibition at 10 µM (entry `COc1cnc(/C=C/C(=O)c2ccccc2)cc1OC1CCCC1` ) reads 113

CCCCCC(O)/C=C/c1cc(OCCCCCC(=O)O)c(OC)cn1 (centres unmarked) yielded inhibition at 10 µM of 90.3

Entry `CCCCCC(=O)/C=C/c1cc(OC(C)=O)c(OC(C)=O)cn1` — recorded inhibition at 10 µM = 94.1

Lab note: `O=C(/C=C/c1cc(O)c(O)cn1)c1ccccc1` gave inhibition at 10 µM of 97.9

The reported value for `COc1cnc(/C=C/C(=O)c2ccccc2)cc1OC(=O)c1ccccc1` in terms of inhibition at 10 µM is 80.8

# inhibition at 10 µM (molecule: `COC(=O)CCCOc1cnc(/C=C/C(=O)C2CCCC2)cc1OC` ) is 88.2

Record `CCCCCC(=O)/C=C/c1cc(O)c(O)cn1` . Reported inhibition at 10 µM: 111

The molecule `CC(=O)Oc1cnc(/C=C/C(=O)c2ccccc2)cc1OC(C)=O` showed inhibition at 10 µM equal to 94.3

inhibition at 10 µM recorded for this molecule, `COc1cnc(/C=C/C(=O)c2ccccc2)cc1OC(C)=O` , is 91.8

Per the record, COc1cc(/C=C/C(O)C2CCCC2)ncc1OCCCCCC(=O)O (centres unmarked) [Ex. 36, hydrochloride] has inhibition at 10 µM of 85.1

Record `COc1cnc(/C=C/C(=O)c2ccccc2)cc1OCCCC(=O)O` . Reported inhibition at 10 µM: 107

Recorded result, `COC(=O)CCCCCOc1cnc(/C=C/C(=O)C2CCCC2)cc1OC` , inhibition at 10 µM: 111

Item: `CCCCOc1cc(/C=C/C(=O)c2ccccc2)ncc1OC` | inhibition at 10 µM: 76.6

`CCCCCC(=O)/C=C/c1cc(OC2CCCC2)c(OC)cn1` yielded inhibition at 10 µM of 94.6

Entry `CCOC(=O)COc1cc(/C=C/C(=O)c2ccccc2)ncc1OC` ; inhibition at 10 µM = 89.5

Short answer for `COCOc1cnc(/C=C/C(=O)c2ccccc2)cc1OCOC` : inhibition at 10 µM was 104

Measured inhibition at 10 µM, `COc1cc(/C=C/C(=O)c2ccccc2)ncc1O` : 97.3

Note to self: inhibition at 10 µM recorded for `COc1cnc(/C=C/C(=O)C2CCCC2)cc1OC1CCCC1` was 93.6

Looking up COc1cc(/C=C/C(=O)C2CCCC2)ncc1OCCCCCC(=O)O [Ex. 38, hydrochloride] , I found its inhibition at 10 µM recorded as 76.3

Note to self: inhibition at 10 µM recorded for `COc1cc(/C=C/C(=O)c2ccccc2)ncc1OC(C)=O` was 102
